- System: human liver hepatocellular carcinoma cell line (HepG2)
- protocolNotes: Cytotoxicity, MTT assay, HepG2
- Type: cell-based
- measurementSetup: MTT, 24 h
IC50 less than 5 µM is Met; IC50 greater than or equal to 5 µM is Not met.

Asked: A record lists "CN1CC(=Cc2cccc(N=Cc3ccc(O)cc3O)c2)C(=O)C(=Cc2ccccc2F)C1" . Is its IC50 below 5 µM?
Given back: Not met

Asked: A record lists "COc1ccc(C=Nc2cccc(C=C3CN(C)CC(=Cc4ccccc4F)C3=O)c2)c(O)c1" . Is its IC50 below 5 µM?
Given back: Met

Asked: A record lists "CN1C/C(=C\c2cc(F)cc(F)c2)C(=O)/C(=C/c2cccc([N+](=O)[O-])c2)C1" . Is its IC50 below 5 µM?
Given back: Not met

Asked: A record lists "CN1CC(=Cc2cccc(N=Cc3cc([N+](=O)[O-])ccc3F)c2)C(=O)C(=Cc2ccccc2F)C1" . Is its IC50 below 5 µM?
Given back: Met

Asked: A record lists "COc1ccccc1/C=C1\CN(C)C/C(=C\c2cc(OC)c(OC)c(OC)c2)C1=O" . Is its IC50 below 5 µM?
Given back: Met

Asked: A record lists "CN1CC(=Cc2cccc(N=Cc3cc(O)ccc3O)c2)C(=O)C(=Cc2ccccc2F)C1" . Is its IC50 below 5 µM?
Given back: Not met

Asked: A record lists "CN1C/C(=C\c2cccc([N+](=O)[O-])c2)C(=O)/C(=C/c2ccc(F)cc2F)C1" . Is its IC50 below 5 µM?
Given back: Not met

Asked: A record lists "CN1CC(=Cc2cccc(N=Cc3cc(F)ccc3O)c2)C(=O)C(=Cc2ccccc2F)C1" . Is its IC50 below 5 µM?
Given back: Met

Asked: A record lists "CN1CC(=Cc2cccc(N=Cc3ccc(Cl)cc3)c2)C(=O)C(=Cc2ccccc2F)C1" . Is its IC50 below 5 µM?
Given back: Met

Asked: A record lists "CN1C/C(=C\c2cccc([N+](=O)[O-])c2)C(=O)/C(=C/c2cc(F)ccc2F)C1" . Is its IC50 below 5 µM?
Given back: Not met

Asked: A record lists "COc1cc(/C=C2\CN(C)C/C(=C\c3ccc(F)cc3Br)C2=O)cc(OC)c1OC" . Is its IC50 below 5 µM?
Given back: Not met

Asked: A record lists "CN1CC(=Cc2cccc(N=Cc3ccc(O)c(O)c3O)c2)C(=O)C(=Cc2ccccc2F)C1" . Is its IC50 below 5 µM?
Given back: Not met

Asked: A record lists "CN1C/C(=C\c2cccc([N+](=O)[O-])c2)C(=O)/C(=C/c2ccc(F)cc2Br)C1" . Is its IC50 below 5 µM?
Given back: Not met

Asked: A record lists "COc1cc(Br)c(O)c(C=Nc2cccc(C=C3CN(C)CC(=Cc4ccccc4F)C3=O)c2)c1" . Is its IC50 below 5 µM?
Given back: Not met

Asked: A record lists "CN1CC(=Cc2cccc(N=Cc3cc(Br)ccc3O)c2)C(=O)C(=Cc2ccccc2F)C1" . Is its IC50 below 5 µM?
Given back: Met

Asked: A record lists "CN1CC(=Cc2cccc(N=Cc3ccc(Cl)c(Cl)c3)c2)C(=O)C(=Cc2ccccc2F)C1" . Is its IC50 below 5 µM?
Given back: Met

Asked: A record lists "COc1ccc(/C=C2\CN(C)C/C(=C\c3ccc(Cl)c(Cl)c3)C2=O)cc1" . Is its IC50 below 5 µM?
Given back: Met

Asked: A record lists "COc1ccc(/C=C2\CN(C)C/C(=C\c3cc(OC)c(OC)c(OC)c3)C2=O)cc1" . Is its IC50 below 5 µM?
Given back: Not met
